Test Target: Protein cereblon/Interleukin-1 receptor-associated kinase 4 (Homo sapiens, UniProt Q9NWZ3+Q96SW2)
Protocol Text: PROTAC activity at CRBN/IRAK4 in human KARPAS-299 cells assessed as induction of IRAK4 degradation incubated for 24 hrs by TR-FRET assay
Type: cell-based
Sequence (Q9NWZ3 whole entry): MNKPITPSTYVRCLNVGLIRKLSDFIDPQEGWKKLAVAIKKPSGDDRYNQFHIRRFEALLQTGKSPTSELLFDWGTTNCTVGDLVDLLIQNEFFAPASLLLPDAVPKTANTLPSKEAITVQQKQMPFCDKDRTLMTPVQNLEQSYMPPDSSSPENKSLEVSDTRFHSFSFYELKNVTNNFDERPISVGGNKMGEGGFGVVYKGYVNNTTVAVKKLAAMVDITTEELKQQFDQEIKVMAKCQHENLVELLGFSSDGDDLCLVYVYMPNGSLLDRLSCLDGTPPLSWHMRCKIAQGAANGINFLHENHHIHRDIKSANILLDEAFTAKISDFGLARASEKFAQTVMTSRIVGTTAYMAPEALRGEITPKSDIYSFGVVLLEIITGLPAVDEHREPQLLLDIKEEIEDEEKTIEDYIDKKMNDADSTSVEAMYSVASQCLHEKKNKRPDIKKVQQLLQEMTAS
Sequence (Q96SW2 whole entry): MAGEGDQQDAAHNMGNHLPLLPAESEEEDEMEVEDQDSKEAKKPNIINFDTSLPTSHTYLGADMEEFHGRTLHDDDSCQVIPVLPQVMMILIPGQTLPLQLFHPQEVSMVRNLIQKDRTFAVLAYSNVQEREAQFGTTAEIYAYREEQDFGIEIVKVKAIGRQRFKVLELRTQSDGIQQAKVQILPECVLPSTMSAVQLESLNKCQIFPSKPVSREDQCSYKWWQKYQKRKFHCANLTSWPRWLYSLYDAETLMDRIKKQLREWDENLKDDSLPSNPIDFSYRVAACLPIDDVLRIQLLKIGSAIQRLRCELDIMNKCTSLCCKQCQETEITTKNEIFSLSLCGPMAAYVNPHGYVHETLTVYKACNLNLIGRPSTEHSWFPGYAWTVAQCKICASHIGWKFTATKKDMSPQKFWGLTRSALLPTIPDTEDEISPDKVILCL
hey, just use 1.0 if measured DC50 is less than 7 nM, otherwise 0.0

INSERT INTO assay_data (chemical_structure, assigned_label) VALUES
  ('CC(C)(O)c1cc2nn([C@H]3C[C@H](N4CCN(C(=O)C5CN(c6cc(F)c([C@H]7CCC(=O)NC7=O)c(F)c6)C5)CC4)C3)cc2cc1NC(=O)c1ccc2cc(C#N)cnn12', 0.0),
  ('CC(C)(O)c1cc2nn(C34CC(N5CCN(CCc6cc(F)c([C@H]7CCC(=O)NC7=O)c(F)c6)CC5)(C3)C4)cc2cc1NC(=O)c1ccc2cc(C#N)cnn12', 1.0),
  ('CC(C)(O)c1cc2nn([C@H]3CC[C@H](N4CCN(C5CN(c6cc(F)c([C@H]7CCC(=O)NC7=O)c(F)c6)C5)CC4)CC3)cc2cc1NC(=O)c1ccc2cc(C#N)cnn12', 0.0),
  ('CC(C)(O)c1cc2nn([C@H]3CC[C@H](N4CCN(CCc5cc(F)c([C@H]6CCC(=O)NC6=O)c(F)c5)CC4)CC3)cc2cc1NC(=O)c1ccc2cc(C#N)cnn12', 1.0),
  ('CC(C)(O)c1cc2nn(C34CCC(N5CCN(CCc6cc(F)c([C@H]7CCC(=O)NC7=O)c(F)c6)CC5)(CC3)CC4)cc2cc1NC(=O)c1ccc2cc(C#N)cnn12', 1.0);

###

Test Target: Protein cereblon/Interleukin-1 receptor-associated kinase 4 (Homo sapiens, UniProt Q9NWZ3+Q96SW2)
Protocol Text: PROTAC activity at CRBN/IRAK4 in human KARPAS-299 cells assessed as induction of IRAK4 degradation incubated for 24 hrs by TR-FRET assay relative to control
Type: cell-based
Sequence (Q96SW2 whole entry, looked up): as the sequence (Q96SW2 whole entry) above
Sequence (Q9NWZ3 whole entry, looked up): as the sequence (Q9NWZ3 whole entry) above
// reported Emax for each item listed
Quantity: Emax

INSERT INTO results (compound, quantity, reported_result) VALUES
  ('CC(C)(O)c1cc2nn([C@H]3CC[C@H](N4CCN(CCc5cc(F)c([C@H]6CCC(=O)NC6=O)c(F)c5)CC4)CC3)cc2cc1NC(=O)c1ccc2cc(C#N)cnn12', 'Emax', '99%'),
  ('CC(C)(O)c1cc2nn(C34CCC(N5CCN(CCc6cc(F)c([C@H]7CCC(=O)NC7=O)c(F)c6)CC5)(CC3)CC4)cc2cc1NC(=O)c1ccc2cc(C#N)cnn12', 'Emax', '101%'),
  ('CC(C)(O)c1cc2nn(C34CC(N5CCN(CCc6cc(F)c([C@H]7CCC(=O)NC7=O)c(F)c6)CC5)(C3)C4)cc2cc1NC(=O)c1ccc2cc(C#N)cnn12', 'Emax', '94%'),
  ('CC(C)(O)c1cc2nn([C@H]3CC[C@H](N4CCN(CCNc5cc(F)c(C6CCC(=O)NC6=O)c(F)c5)CC4)CC3)cc2cc1NC(=O)c1ccc2cc(C#N)cnn12 (stereo partly specified)', 'Emax', '100%'),
  ('CC(C)(O)c1cc2nn([C@H]3C[C@H](N4CCN(C(=O)C5CN(c6cc(F)c([C@H]7CCC(=O)NC7=O)c(F)c6)C5)CC4)C3)cc2cc1NC(=O)c1ccc2cc(C#N)cnn12', 'Emax', '99%'),
  ('CC(C)(O)c1cc2nn([C@H]3CC[C@H](N4CCN(C5CN(c6cc(F)c([C@H]7CCC(=O)NC7=O)c(F)c6)C5)CC4)CC3)cc2cc1NC(=O)c1ccc2cc(C#N)cnn12', 'Emax', '100%');
